Catalogue of inhibition readings, one per entry.
- Tested on: HIV-1 gp120 / PG9 antibody interaction
- assay details: binders of HIV-1 gp120 antibody PG9, primary screen, biochemical, TR-FRET (AID 624416)
- applied conditions: TR-FRET gp120-PG9 antibody binding; at 6.7 µM; hits give high values
The whole screen tested about 360,000 compounds, of which about 1,500 (0.42%) were called active. This excerpt belongs to a sample that is enriched for actives.
The reply should contain only the number, in %.

Solved entries (count: 6):
1) COc1ccc(Sc2ccc(NC(=O)c3cccc(Cl)c3)cc2C#N)cc1
-1.17
2) O=C(OCc1ccccc1F)c1ccc2c(c1)OCCO2
-1.71
3) CC(OC(=O)c1ccc(-n2cnnn2)cc1)C(=O)NCc1ccccc1 (configuration not stated)
1.87
4) COC(=O)[C@]12C[C@H](CC(=O)NCc3ccc(OC)c(OC)c3)C(=O)N(Cc3ccccc3)C1=C[C@H](C(C)C)O[C@@H]2C1CC1
-0.45
5) O=C(Oc1ccccc1)Oc1ccc2c(c1)oc(=O)c1ccccc12
28.2
6) NS(=O)(=O)c1ccc2nc(NC(=O)CS(=O)(=O)c3ccc(F)cc3)sc2c1
-0.8

Briefly, inhibition measured for O=C(NCc1cccnc1)c1cccnc1Sc1ccc(Cl)cc1 : 0.54

Briefly, inhibition measured for O=C(Nc1cccc(S(=O)(=O)Nc2ccc(Cl)cc2)c1)c1ccc2c(c1)OCCO2 : 9.35

Briefly, inhibition measured for COc1ccc(NC(=O)CSc2nnc(Cc3ccccc3)c(=O)n2N)cc1 : -0.48

Briefly, inhibition measured for COc1cccc(NC(=O)N(C)C[C@@H]2OCc3cn(nn3)CCCC(=O)N([C@@H](C)CO)C[C@H]2C)c1 : 0.85

Briefly, inhibition measured for CCC(C)C(=O)Nc1cc([N+](=O)[O-])ccc1Cl (configuration not stated) : -4.15

Briefly, inhibition measured for COc1ccc(NC(=O)CC(NC(C)c2ccccc2)C(=O)O)cc1 (configuration not stated) : -1.77

Briefly, inhibition measured for COc1ccccc1-c1ccc([C@@H]2C[C@H]3[C@H](CON3C)CN2S(=O)(=O)c2cc(Cl)cc(Cl)c2)cc1 : -0.23

Briefly, inhibition measured for O=C(Nc1c(Br)cc2c(c1Br)Cc1cc([N+](=O)[O-])ccc1-2)C(Cl)Cl : 17.5

Briefly, inhibition measured for COC(=O)[C@]12C[C@H](CC(=O)NCCc3ccccc3OC)C(=O)N(Cc3ccccc3)C1=C[C@H](C(C)C)O[C@@H]2C1CC1 : -0.91

Briefly, inhibition measured for CC(=O)C1=C(C)N(Cc2ccc(Cl)cc2)C(=S)NC1c1ccc(F)cc1 (configuration not stated) : -2.38

Briefly, inhibition measured for COc1cccc(CNC(=O)c2cccnc2Sc2ccc(Cl)cc2)c1 : 14.9

Briefly, inhibition measured for Cc1ccc2nc(-c3ccc(CN4CCC(n5cc(-c6ccccc6)[nH]c5=O)CC4)cc3)c(-c3ccccc3)nc2c1 : -0.32

* * *

- System: HIV-1 gp120 / PG9 antibody interaction
- assay details: binders of HIV-1 gp120 antibody PG9, primary screen, biochemical, TR-FRET (AID 624416)
- applied conditions: TR-FRET gp120-PG9 antibody binding; at 6.7 µM; hits give high values
In all, about 360,000 compounds went through this assay and about 1,500 (0.42%) were called active. For the sample, actives were picked, then their nearest neighbours and some compounds at random.
Catalogue of inhibition readings, one per entry.
The reply should contain only the number, in %.

Solved entries (count: 3):
1. NNc1nc2c(Cl)cccc2s1
-3.22
2. CSc1nc2c(c(=O)[nH]1)C(c1cccc(Cl)c1Cl)CC(=O)N2 (centres undefined)
-0.61
3. Nc1[nH]c(C(=O)c2ccc(Br)cc2)c(-c2ccc3c(c2)OCO3)c1C(=O)NCCc1c[nH]c2ccccc12
0.87

Briefly, inhibition measured for Cc1ccccc1C(=O)N[C@H](C(=O)N1CCC[C@H]1C(=O)NCc1ccccc1)C(C)C : -2.77

Briefly, inhibition measured for O=C(COC(=O)c1ccc2c(c1)OCCO2)NCc1ccccc1Cl : 9.13

Briefly, inhibition measured for COc1cccc(-n2c(SCC(=O)NC3CCCCC3)nc3n[nH]c(C)c3c2=N)c1 : 0.99

Briefly, inhibition measured for Cc1cccc(NC(=O)Cc2ccc(Br)cc2)n1 : 1.95

Briefly, inhibition measured for CC(=O)C1=C(C)N(Cc2ccccc2)C(=S)NC1c1cccc(Br)c1 (centres undefined) : -1.42

Briefly, inhibition measured for CC(=NNC(N)=O)c1ccc(Cl)c(-n2cccc2)c1 : 0.53

Source listed as PubChem BioAssay AID624416.
